FYI, the data here is from patent US20120214862A1.

tested on: human Factor 7 mRNA; test: Antisense inhibition of human Factor 7 mRNA in HepB3 cells, lipofectin, 50 nM, real-time RT-PCR; type: cell-based; details: Example 1; HepB3 cells, lipofectin, 50 nM, ~24 h, relative to untreated control cells
In the oligonucleotide strings, read from the 5' end, every base follows the letter of its sugar. An asterisk marks phosphorothioate; unmarked linkages are phosphodiester. Other units and linkages are bracketed, terminal groups are in braces. A string of capitals states the bases alone. e = 2'-O-(2-methoxyethyl) (MOE); [5mC] = 5-methylcytosine; d = 2'-deoxy (DNA)
# % Inhibition (human Factor 7 mRNA) per entry
property_name: % Inhibition (human Factor 7 mRNA) (%)

- substance: "407643 (antisense e[5mC]*eA*e[5mC]*eA*e[5mC]*dA*dT*dG*dG*dA*dG*dT*d[5mC]*dA*dG*e[5mC]*eA*eT*e[5mC]*eG) [compound 407643]"
  unit_string: "%"
  result_number: 84
- substance: "403093 (antisense eG*eA*eG*eA*e[5mC]*d[5mC]*d[5mC]*dT*dG*dG*dT*dG*dT*dA*d[5mC]*eA*e[5mC]*e[5mC]*e[5mC]*e[5mC]) [compound 403093]"
  unit_string: "%"
  result_number: 75
- substance: "407956 (antisense eA*eA*e[5mC]*eT*eT*dG*d[5mC]*dA*dT*dT*dT*dA*dG*dT*dG*eA*eT*eG*e[5mC]*eG) [compound 407956]"
  unit_string: "%"
  result_number: 19
